- Test system: UACC-62
- assay: NCI tumour cell line growth inhibition, 48 h
Calls of active or inactive are those of the source. No stated cut-off is given here; in the data, active = GI50 up to about 1.1 µM and inactive = higher. Where a SMILES comes first, the peptide text is derived from it. [ ]: non-standard residue; d: D form. The star is where a group is joined. Phe(4-NO2) = N[CH](Cc1ccc([N+](=O)[O-])cc1)C(=O)O; Boc = CC(C)(C)OC(=O)*; OtBu = CC(C)(C)O*
readout name: GI50

In the examples that follow, each entry is paired with its recorded GI50.
>>> observed("COc1ccc(N2C(=O)C3c4[nH]c5ccc(F)cc5c4C4CCC(C(C)(C)C)CC4C3C2=O)cc1 (configuration not stated)")
"7.43 µM (inactive)"
>>> observed("O=C1CC2(CCC(O)(c3ccc(Cl)cc3)C(C(=O)c3ccc(Cl)cc3)C2)C(=O)c2ccccc2N1 (configuration not stated)")
"14.8 µM (inactive)"
>>> observed("Cc1[nH]c2ccccc2c1C1Cc2ccccc2N1C(=O)/C=C\\C(=O)O (configuration not stated)")
"26.2 µM (inactive)"
>>> observed("COc1cccc(C[C@H]2COC(=O)[C@]2(O)Cc2cccc(OC)c2)c1")
"60.1 µM (inactive)"
>>> observed("O=[N+]([O-])c1ccc(O)c(/C=N/NC(=S)N2CCCCC2)c1")
"3.3 µM (inactive)"

Give the measured GI50 for Cc1c/c(=N/NC(=O)c2ccncc2)n2nc(N)sc2n1 > 100 µM (inactive)

Give the measured GI50 for N/C(=N\O)N/N=C/c1cccc(F)c1 16.8 µM (inactive)

Give the measured GI50 for CC(=O)NC(CCC(=O)OC(C)(C)C)C(=O)NC(CCC(=O)OC(C)(C)C)C(=O)NC(Cc1ccc([N+](=O)[O-])cc1)C(=O)NC(CCCCNC(=O)OC(C)(C)C)C(=O)NC(CCCCNC(=O)OC(C)(C)C)C(=O)NCC(=O)O (configuration not stated) (Ac-E(OtBu)E(OtBu)[Phe(4-NO2)]K(Boc)K(Boc)G-OH; configuration not given here) > 100 µM (inactive)

====

- Tested on: SN12C
- assay: NCI tumour cell line growth inhibition, 48 h
The source made the active and inactive calls. Cut-off read from the data, not from the text of the source: active = GI50 up to about 1.1 µM and inactive = higher.
Entries and their measured GI50 follow.

In the examples that follow, each entry is paired with its recorded GI50.
>>> observed("O=C1CCC(c2ccccc2)=NN1c1nc2ccccc2s1")
"29.4 µM (inactive)"
>>> observed("CC12CCC(=O)[C@@]1(C)CCCC2=O (stereo partly drawn)")
"> 100 µM (inactive)"
>>> observed("O=C1C(=O)N(C2CCCCC2)C(=S)N1C1CCCCC1")
"> 100 µM (inactive)"
>>> observed("CC(=O)Nc1ccc(/C=c2\\sc3nnc(/C=C/c4ccccc4)n3c2=O)cc1")
"> 50 µM (inactive)"
>>> observed("CC(=O)OC1CC2CCC1(C)C2(C)C (stereo not drawn)")
"> 100 µM (inactive)"

Give the measured GI50 for O=C(Oc1cccnc1)c1cc2cc(CCl)ccc2oc1=O 21.6 µM (inactive)

Give the measured GI50 for CCOC(=O)C1=C(C)NC(c2ccccc2)=C(C(=O)OCc2ccccc2)C1C#Cc1ccccc1 (stereo not drawn) 12.4 µM (inactive)

Give the measured GI50 for N#CC(NNC(=O)c1ccccc1O)c1c(O)ccc2ccccc12 (stereo not drawn) 7.64 µM (inactive)

Give the measured GI50 for C=CCC1=CC2(OC)C(=O)C(OC)(OC)C1C1C(OC)(OC)C(=O)C(OC)=CC12CC=C (stereo not drawn) > 100 µM (inactive)

Give the measured GI50 for O=C(CN1CCN(Cc2ccccc2)CC1)c1ccc2[nH]c(=O)oc2c1 > 100 µM (inactive)

Give the measured GI50 for C=C1CC(Cn2ccc(=O)[nH]c2=O)(c2ccc(-c3ccccc3)cc2)OC1=O (stereo not drawn) 4.6 µM (inactive)

Give the measured GI50 for O=C(O)C1OC1(c1cccc(Cl)c1)c1ccccc1Cl (stereo not drawn) 23 µM (inactive)

Give the measured GI50 for CN(C)CCNc1nc(-c2cccs2)cc(-c2cccs2)n1 12.9 µM (inactive)

====

- System: HCT-116
- assay: NCI tumour cell line growth inhibition, 48 h
Activity calls are given as the source filed them. No stated cut-off is given here; in the data, active = GI50 up to about 1.1 µM and inactive = higher.
Lab note: assign the record to one of 1 = active, -1 = inactive

Completed entries (count: 5):
>>> class_name("O=[N+]([O-])c1ccc2occ3c2c1CCC3")
-1
>>> class_name("Nc1nc(O)c2nc(N)n(Cc3ccccc3)c2n1")
-1
>>> class_name("NCc1ccccc1-c1c2nc(c(-c3ccccc3CN)c3ccc([nH]3)c(-c3ccccc3CN)c3nc(c(-c4ccccc4CN)c4ccc1[nH]4)C=C3)C=C2")
-1
>>> class_name("COc1c(-c2ccccc2)nc2ccc(Oc3ccccc3)nn12")
-1
>>> class_name("CC(C)C[C@H](NC(=O)[C@H](Cc1cccc2ccccc12)NS(=O)(=O)c1cccc2cccnc12)B(O)O")
1

Which outcome did this test record for the compound O=C(O)C[C@H]1CCCCC12CCOC2=O (stereo partly drawn) ? -1

Which outcome did this test record for the compound Cc1nc2ccc(F)cc2c2c1CCS2 ? -1

Which outcome did this test record for the compound CCc1ccccc1NC(=O)C(=O)C(C#N)c1c(Cl)cccc1Cl (stereo not drawn) ? -1

====

- System: CAKI-1
- assay: NCI tumour cell line growth inhibition, 48 h
Structures can show the parent of a compound that is named as a salt. Activity calls are given as the source filed them. Cut-off read from the data, not from the text of the source: active = GI50 up to about 1.1 µM and inactive = higher.
readout name: GI50

In the examples that follow, each entry is paired with its recorded GI50.
>>> observed("CNC1=Nc2ccccc2C(=S)N2CSC[C@@H]12")
"> 100 µM (inactive)"
>>> observed("COC(=O)CC1CC2(C(=O)OC)c3[nH]c4ccccc4c3CCN2C1=O (stereo unspecified)")
"> 100 µM (inactive)"
>>> observed("Cc1c/c(=N/NC(=O)c2ccncc2)n2nc(N)sc2n1")
"> 100 µM (inactive)"
>>> observed("CCCCc1oc2ccccc2c1C(=O)c1cc(I)c(OCCN(CC)CC)c(I)c1 [AMIODARONE HYDROCHLORIDE]")
"6.14 µM (inactive)"
>>> observed("CSc1ccccc1P(c1ccccc1SC)c1ccccc1SC")
"> 100 µM (inactive)"
>>> observed("S=C1NCCN1")
"> 100 µM (inactive)"

Give the measured GI50 for COC(C)(C)OCCN1CCN(CCN2C3=C(C=C(C(C)=O)C3)Sc3ccccc32)CC1 19.2 µM (inactive)

====

- Tested on: MDA-N
- assay: NCI tumour cell line growth inhibition, 48 h
The source made the active and inactive calls. No stated cut-off is given here; in the data, active = GI50 up to about 1.1 µM and inactive = higher.
readout name: GI50

In the examples that follow, each entry is paired with its recorded GI50.
>>> observed("CC(C)C[C@H](NC(=O)[C@H](Cc1cccc2ccccc12)NS(=O)(=O)c1cccc2cccnc12)B(O)O")
"< 0.01 µM (active)"
>>> observed("Cc1ccc(S(=O)(=O)/N=C(\\NN)Nc2ccc(Cl)cc2)cc1")
"> 100 µM (inactive)"
>>> observed("CN(C)c1ccc(C2C(Cl)C(=O)N2NC(=O)c2c(Cl)c(Cl)c(Cl)c(Cl)c2-c2nc3ccccc3[nH]2)cc1 (stereo unspecified)")
"5.77 µM (inactive)"
>>> observed("CCOC(=O)C1NCCc2c1[nH]c1ccccc21 (stereo unspecified)")
"> 10 µM (inactive)"

Give the measured GI50 for NC1=C(N2CCCCC2)C(=O)NC2=N/C(=C\c3ccccc3)C(=O)N21 > 100 µM (inactive)

====

- Test system: ACHN
- assay: NCI tumour cell line growth inhibition, 48 h
The source made the active and inactive calls. Cut-off read from the data, not from the text of the source: active = GI50 up to about 1.1 µM and inactive = higher.
Lab note: assign the record to one of active, inactive

Completed entries (count: 3):
>>> class_name("CC(NC(=O)c1ccccc1)C(=O)N(Cc1ccccc1)Cc1ccccc1 (centres undefined)")
"inactive"
>>> class_name("NC(=S)NNCC(=O)CC(O)(C(F)(F)F)C(F)(F)Cl (centres undefined)")
"inactive"
>>> class_name("Nc1[nH]c(=O)[nH]c(=O)c1Cc1cccc(Cl)c1")
"inactive"

Which outcome did this test record for the molecule COc1cccc2c(N)c3cccc(C(=O)NCCN(C)C)c3nc12 ? active

Which outcome did this test record for the molecule CC12CCC(=O)[C@@]1(C)CCCC2=O (some centres undefined) ? inactive

Which outcome did this test record for the molecule COC(=O)CC1CC2(C(=O)OC)c3[nH]c4ccccc4c3CCN2C1=O (centres undefined) ? inactive

Which outcome did this test record for the molecule NCc1ccccc1-c1c2nc(c(-c3ccccc3CN)c3ccc([nH]3)c(-c3ccccc3CN)c3nc(c(-c4ccccc4CN)c4ccc1[nH]4)C=C3)C=C2 ? inactive

Which outcome did this test record for the molecule O=C(/C=C1\Nc2ncccc2N=C1CC(=O)c1ccccc1)c1ccccc1 ? inactive

====

- Test system: COLO 205
- assay: NCI tumour cell line growth inhibition, 48 h
Activity calls are given as the source filed them. Rule as the data show it: active = GI50 up to about 1.1 µM and inactive = higher.
readout name: GI50

In the examples that follow, each entry is paired with its recorded GI50.
>>> observed("C=CCC1=CC2(OC)C(=O)C(OC)(OC)C1C1C(OC)(OC)C(=O)C(OC)=CC12CC=C (centres undefined)")
"> 100 µM (inactive)"
>>> observed("COc1ccc(/C=N\\NC(=O)Nc2cccc3ccccc23)cc1")
"> 100 µM (inactive)"
>>> observed("O=[N+]([O-])c1ccc(S(=O)(=O)N=Ic2ccccc2)cc1")
"> 100 µM (inactive)"
>>> observed("O=C(Nc1ccccc1F)c1cc2ccc(O)cc2o/c1=N\\c1cccc(F)c1")
"29.7 µM (inactive)"
>>> observed("C=CCOC(=O)Cn1cnc2c(N)ncnc21")
"> 100 µM (inactive)"

// switching to the query molecule
Give the measured GI50 for CN(C)CCNc1nc(-c2cccs2)cc(-c2cccs2)n1 12.1 µM (inactive)
